The reported numbers originate from PubChem BioAssay (NCI).

Form field: growth (one value per entry).
- Tested on: SK-MEL-5 melanoma
- measurementNotes: NCI-60 one-dose screen, 48 h (100 = growth as untreated, 0 = no growth, -100 = all killed)
- conditionDescription: 10 µM unless noted
The panel holds about 83,000 compounds, 20% with a hit somewhere; the sample as a whole holds those more often.
reportedEndpoint: growth (%)

smilesnotation=Clc1cccc(/C=N/Nc2nc(N/N=C/c3cccc(Cl)c3Cl)nc(N3CCCCC3)n2)c1Cl measurementunit=% reported=94.2
smilesnotation=O=c1[nH]c2ccccc2cc1CSc1ccccc1Nc1nccc(-c2ccc(Cl)cc2)n1 measurementunit=% reported=96.6
smilesnotation=CN(C)CCNC(=O)c1ccc(-c2nc3ccc4[nH]ncc4c3c3c2CCC3)cc1 measurementunit=% reported=7.44
smilesnotation=COc1cc(-c2nc(SCCC(C)C)nc(NNC(=O)c3ccncc3)c2C#N)cc(OC)c1OC measurementunit=% reported=84.4
smilesnotation=C#C[C@]1(O)CC[C@H]2[C@@H]3CC=C4c5sc(-c6ccc(C)cc6)nc5CC[C@]4(C)[C@H]3CC[C@@]21C measurementunit=% reported=-75.7

###

- Tested on: SF-295 CNS
- measurementNotes: NCI-60 one-dose screen, 48 h (100 = growth as untreated, 0 = no growth, -100 = all killed)
- conditionDescription: 10 µM unless noted
About 83,000 compounds went through this panel and 20% of them were active in at least one assay; those are over-represented in the sample as a whole.
hey, just use 1 (yes) if measured growth is less than 80%, otherwise 0 (no)

molecule=CCN(CC)c1ccc(NC2=C(Cl)C(=O)c3nc(C)ccc3C2=O)cc1 categorylabel="0 (no)"
molecule=Cc1ccc(-n2cc(/C=N/NC(=O)c3nc(N)n[nH]3)c(-c3ccc(S(C)(=O)=O)cc3)n2)cc1 categorylabel="0 (no)"
molecule=c1cc(-c2nc3ccc4[nH]ncc4c3c3c2CCCC3)[nH]n1 categorylabel="1 (yes)"
molecule=CCN(CC)c1cn(-c2ccc(S(N)(=O)=O)cc2)nn1 categorylabel="0 (no)"
molecule=COc1ccc2c(c1)c(-c1cc(N)n3nc(-c4cn(C)c5ccc(OC)cc45)cc3n1)cn2C categorylabel="0 (no)"
molecule=CCOC(=O)c1c(Nc2ccccc2)nn2c(-c3ccc(Cl)cc3)ccnc12 categorylabel="1 (yes)"
molecule=NS(=O)(=O)c1ccc(Nc2cc(-c3ccccc3)nc(SCC(=O)c3ccccc3)n2)cc1 categorylabel="0 (no)"
molecule=NC(N)=Nc1ccc(Oc2cccc(Oc3ccc(Cl)c(C(F)(F)F)c3)c2)cn1 categorylabel="1 (yes)"
molecule=NC(N)=Nc1ccc(Oc2cccc(Nc3ccc(Cl)cc3)c2)cn1 categorylabel="1 (yes)"
molecule=C=C(C)[C@@H]1CC[C@]2(COCCCNCCC#N)CC[C@]3(C)[C@H](CC[C@@H]4[C@@]5(C)CC[C@H](OCCCNCCC#N)C(C)(C)[C@@H]5CC[C@]43C)[C@@H]12 categorylabel="1 (yes)"
molecule="CCNC(=O)N1CCc2cc(OC)c(OCCc3ccc(OC)c(N)c3)cc2C1c1ccc(C)cc1C (stereo unspecified)" categorylabel="1 (yes)"
molecule=COc1cccc(O)c1/C=C(/C)c1ccc2c(OC)cccc2[o+]1 categorylabel="0 (no)"
molecule=Cc1nn(-c2ccccc2)c2ncnc(N/N=C/c3ccccc3)c12 categorylabel="0 (no)"
molecule="Cc1ccc2sc3c(c2c1)OC(N)=C(C#N)C3c1ccc(Cl)cc1 (stereo unspecified)" categorylabel="1 (yes)"
molecule="CCO/C=N/C1=C(C#N)C(c2ccc(OC)cc2)c2sc3c(C)cccc3c2O1 (stereo unspecified)" categorylabel="1 (yes)"
molecule=O=S(=O)(NCCNc1nccc(-n2cnc3ccccc32)n1)c1ccc(C(F)(F)F)cc1 categorylabel="1 (yes)"
molecule=N#Cc1c(Nc2ccccc2)nn2c(-c3ccc([N+](=O)[O-])cc3)ccnc12 categorylabel="0 (no)"
molecule=Cc1ccc(NC(=S)NNC(=S)Nc2ccc(C)cc2)cc1 categorylabel="0 (no)"
molecule=Fc1ccc(-c2cc3nc(C(Cl)Cl)nc(-c4ccco4)n3n2)cc1 categorylabel="1 (yes)"
molecule=Nc1ncc(-c2ccc3ncnc(Nc4cccc(Cl)c4F)c3c2)cn1 categorylabel="1 (yes)"
